# target-or-system: UniProtKB Q13822
observed-property: IC50

In the examples that follow, each entry is paired with its recorded IC50.
CCCCC1CN(CC(=O)C2CCCCC2)C(=O)c2cc(-c3ccc(Cl)cc3)nn21 (stereo not shown); 10 to 100 nM
C[C@H]1CN(CC(=O)N(C)CCC#N)C(=O)c2cc(-c3ccc(C#N)cc3NC(=O)CF)nn21; < 10 nM
CCCCCC1CN(CC(=O)NCCCCC(=O)O)C(=O)c2cc(-c3ccc(Cl)cc3)nn21 (stereo not shown); 10 to 100 nM

# next molecule below
IN: Identify measured IC50 associated with `CC(=O)Nc1cc(C#N)cc(CO)c1-c1cc2n(n1)[C@@H](C)CN(Cc1ccc(C#N)cc1)C2=O`
OUT: 10 to 100 nM
